Data origin, for the record: the supplement of paper PMC11061612

System: SNU-61 (Colorectal Carcinoma);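 also: after 72 h of two-drug dosing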
assay.text: Bliss excess, mean over the matrix (fraction); higher = more synergy
measurement.kind: Bliss excess
The response must contain the number and no unit.

Example cases with answers are listed next.
molecule	Bliss excess
COc1cccc(OCCCN)c1-c1cc(Nc2cnc(C#N)cn2)n[nH]1 [Prexasertib] + C=CCn1c(=O)c2cnc(Nc3ccc(N4CCN(C)CC4)cc3)nc2n1-c1cccc(C(C)(C)O)n1 [AZD1775] (first compound max 1 µM, partner max 1 µM)	-0.0124
CN(CCO)CC[C@H](CSc1ccccc1)Nc1ccc(S(=O)(=O)NC(=O)c2ccc(N3CCC([C@@H](O)c4ccccc4-c4ccc(Cl)cc4)CC3)cc2)cc1S(=O)(=O)C(F)(F)F [AZD4320] + C=CCn1c(=O)c2cnc(Nc3ccc(N4CCN(C)CC4)cc3)nc2n1-c1cccc(C(C)(C)O)n1 [AZD1775] (first compound max 1 µM, partner max 1 µM)	-0.0175

Reported Bliss excess ( Cc1c2c(nn1C)CSCc1cc(n(C)n1)CSc1cc(c3ccccc3c1)OCCCc1c(C(=O)O)n(C)c3c-2c(Cl)ccc13 [AZD5991] + C=CCn1c(=O)c2cnc(Nc3ccc(N4CCN(C)CC4)cc3)nc2n1-c1cccc(C(C)(C)O)n1 [AZD1775] (first compound max 1 µM, partner max 1 µM) ) = -0.0118
